Recorded measurements of fold change of affinity, one per entry
TARGET OF ASSAY: T1, Human CD3eg linker (human)
T1 construct: Single chain: epsilon and gamma subunits of human CD3 joined by a 29-mer linker, Flag-tag at the C-terminus; also called recombinant human CD3
T1 chain: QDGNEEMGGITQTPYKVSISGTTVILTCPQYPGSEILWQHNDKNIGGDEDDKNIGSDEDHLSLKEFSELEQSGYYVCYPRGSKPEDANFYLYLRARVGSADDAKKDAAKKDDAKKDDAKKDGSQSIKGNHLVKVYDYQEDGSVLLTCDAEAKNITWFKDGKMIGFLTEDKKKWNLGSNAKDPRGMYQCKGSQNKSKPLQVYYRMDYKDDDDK
ASSAY DETAILS: Biacore SPR, vs template H183/L072
PROPERTY NAME: fold change of affinity (fold)

binder="H183/L072 VH N53Y (antibody, name in Kabat numbering, V domains shown) VH: QVQLVESGGGLVQPGRSLRLSCAASGFTFSNAWMHWVRQAPGKGLEWVAQIKDKGYAYAAYYAPSVKGRFTISRDDSKNSIYLQMNSLKTEDTAVYYCHYVHYASASTVLPAFGVDAWGQGTTVTVSS VL: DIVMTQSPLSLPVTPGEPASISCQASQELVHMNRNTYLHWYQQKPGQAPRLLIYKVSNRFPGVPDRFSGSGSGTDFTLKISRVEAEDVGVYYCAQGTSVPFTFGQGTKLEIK" recorded_result=0.9
binder="H183/L072 VH Q50W (antibody, name in Kabat numbering, V domains shown) VH: QVQLVESGGGLVQPGRSLRLSCAASGFTFSNAWMHWVRQAPGKGLEWVAWIKDKGNAYAAYYAPSVKGRFTISRDDSKNSIYLQMNSLKTEDTAVYYCHYVHYASASTVLPAFGVDAWGQGTTVTVSS VL: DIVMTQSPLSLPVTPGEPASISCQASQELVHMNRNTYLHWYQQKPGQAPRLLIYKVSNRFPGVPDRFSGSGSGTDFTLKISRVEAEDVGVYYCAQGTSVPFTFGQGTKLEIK" recorded_result=0
binder="H183/L072 VH S62L (antibody, name in Kabat numbering, V domains shown) VH: QVQLVESGGGLVQPGRSLRLSCAASGFTFSNAWMHWVRQAPGKGLEWVAQIKDKGNAYAAYYAPLVKGRFTISRDDSKNSIYLQMNSLKTEDTAVYYCHYVHYASASTVLPAFGVDAWGQGTTVTVSS VL: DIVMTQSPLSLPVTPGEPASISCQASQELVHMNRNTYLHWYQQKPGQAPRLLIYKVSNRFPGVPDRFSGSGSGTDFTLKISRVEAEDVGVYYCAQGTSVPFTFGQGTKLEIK" recorded_result=1.5
binder="H183/L072 VH Q50V (antibody, name in Kabat numbering, V domains shown) VH: QVQLVESGGGLVQPGRSLRLSCAASGFTFSNAWMHWVRQAPGKGLEWVAVIKDKGNAYAAYYAPSVKGRFTISRDDSKNSIYLQMNSLKTEDTAVYYCHYVHYASASTVLPAFGVDAWGQGTTVTVSS VL: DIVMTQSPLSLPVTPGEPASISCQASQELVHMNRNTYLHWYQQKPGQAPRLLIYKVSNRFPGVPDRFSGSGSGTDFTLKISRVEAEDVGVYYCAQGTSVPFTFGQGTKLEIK" recorded_result=0
binder="H183/L072 VH Y59D (antibody, name in Kabat numbering, V domains shown) VH: QVQLVESGGGLVQPGRSLRLSCAASGFTFSNAWMHWVRQAPGKGLEWVAQIKDKGNAYAAYDAPSVKGRFTISRDDSKNSIYLQMNSLKTEDTAVYYCHYVHYASASTVLPAFGVDAWGQGTTVTVSS VL: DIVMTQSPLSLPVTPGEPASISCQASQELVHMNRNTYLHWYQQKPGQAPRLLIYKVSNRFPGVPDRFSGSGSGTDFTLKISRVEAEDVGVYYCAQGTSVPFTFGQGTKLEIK" recorded_result=1.1
